- System: SIRT1 (Homo sapiens, UniProt Q96EB6)
- Sequence (Q96EB6 1-747): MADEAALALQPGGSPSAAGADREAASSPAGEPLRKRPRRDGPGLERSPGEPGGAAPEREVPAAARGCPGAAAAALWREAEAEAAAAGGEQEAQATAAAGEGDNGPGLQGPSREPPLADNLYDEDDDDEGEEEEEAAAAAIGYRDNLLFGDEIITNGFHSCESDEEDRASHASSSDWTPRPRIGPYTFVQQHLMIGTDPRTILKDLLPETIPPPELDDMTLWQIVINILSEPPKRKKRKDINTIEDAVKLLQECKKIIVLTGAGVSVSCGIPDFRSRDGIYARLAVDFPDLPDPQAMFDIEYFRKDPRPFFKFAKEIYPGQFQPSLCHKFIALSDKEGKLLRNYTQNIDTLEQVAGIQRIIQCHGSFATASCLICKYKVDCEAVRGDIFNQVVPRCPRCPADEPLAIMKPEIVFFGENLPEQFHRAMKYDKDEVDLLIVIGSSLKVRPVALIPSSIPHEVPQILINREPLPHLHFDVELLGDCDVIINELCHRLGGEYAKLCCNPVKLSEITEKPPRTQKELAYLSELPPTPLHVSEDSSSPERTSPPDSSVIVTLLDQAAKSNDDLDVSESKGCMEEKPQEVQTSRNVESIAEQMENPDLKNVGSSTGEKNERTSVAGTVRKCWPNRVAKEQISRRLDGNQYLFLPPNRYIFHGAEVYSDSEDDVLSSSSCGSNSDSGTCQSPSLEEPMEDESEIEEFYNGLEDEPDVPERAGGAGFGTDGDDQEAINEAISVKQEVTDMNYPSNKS
- Procedure Details: Mass spectrometry based assay to identify modulators of SIRT1 activity (deacetylation of p53-based acetylated peptide substrate)
- Type: biochemical
- Assay Setup: SIRT1 activation
Property Label: EC1.5

Recorded results for 10 compounds are shown here.
Query: Would you mind telling me what EC1.5 value was observed for Cc1cc(-c2cccc(C(F)(F)F)c2)nc2c1OCCN2C(=O)Nc1ccncn1 [Compound 669] ?
Reply: A (EC1.5<1.0 μM)

Query: Would you mind telling me what EC1.5 value was observed for Cc1cncc(NC(=O)N2CCOc3ccc(-c4cccc(C(F)(F)F)c4)nc32)c1 [Compound 551] ?
Reply: A (EC1.5<1.0 μM)

Query: Would you mind telling me what EC1.5 value was observed for Cc1cc(NC(=O)N2CC(C)(C)Oc3ccc(-c4cccc(F)c4)nc32)cc(C)n1 [Compound 592] ?
Reply: A (EC1.5<1.0 μM)

Query: Would you mind telling me what EC1.5 value was observed for Cc1cc(NC(=O)N2CCCOc3ccc(-c4cccc(Cl)c4)nc32)ccn1 [Compound 613] ?
Reply: A (EC1.5<1.0 μM)

Query: Would you mind telling me what EC1.5 value was observed for Cc1cc(-c2cccc(Cl)c2)nc2c1OCCN2C(=O)Nc1ccncn1 [Compound 685] ?
Reply: A (EC1.5<1.0 μM)

Query: Would you mind telling me what EC1.5 value was observed for CN1CCN(C(=O)Nc2ccncc2)c2nc(-c3cccc(C(F)(F)F)c3)ccc21 [Compound 531] ?
Reply: A (EC1.5<1.0 μM)

Query: Would you mind telling me what EC1.5 value was observed for Cc1ccc(-c2ccc3c(n2)N(C(=O)Nc2ccnc(C)c2)CCCO3)cn1 [Compound 635] ?
Reply: C (EC1.5>25 μM)

Query: Would you mind telling me what EC1.5 value was observed for O=C(Nc1ccccn1)N1CCCc2ccc(-c3cccc(Cl)c3)nc21 [Compound 652] ?
Reply: A (EC1.5<1.0 μM)

Query: Would you mind telling me what EC1.5 value was observed for Cc1cc(NC(=O)N2CCOc3ccc(-c4cccc(N5CCCC5)c4)nc32)cc(C)n1 [Compound 618] ?
Reply: A (EC1.5<1.0 μM)

Query: Would you mind telling me what EC1.5 value was observed for O=C(Nc1ccnc(N2CCCC2)c1)N1CCCOc2ccc(-c3cccc(Cl)c3)nc21 [Compound 609] ?
Reply: A (EC1.5<1.0 μM)

Continuing:
Query: Would you mind telling me what EC1.5 value was observed for O=C(Nc1ncc(CN2CCCC2)s1)N1CCOc2ccc(-c3cccc(C(F)(F)F)c3)nc21 [Compound 505] ?
Reply: C (EC1.5>25 μM)

Query: Would you mind telling me what EC1.5 value was observed for Cc1cnccc1NC(=O)N1CCOc2ccc(-c3cccc(C(F)(F)F)c3)nc21 [Compound 564] ?
Reply: B (EC1.5 1-25 μM)

Query: Would you mind telling me what EC1.5 value was observed for Cc1cc(C)c(NC(=O)N2CCOc3ccc(-c4cccc(C(F)(F)F)c4)nc32)cn1 [Compound 553] ?
Reply: B (EC1.5 1-25 μM)

###

- System: SIRT1 (Homo sapiens)
- Procedure Details: Mass spectrometry based assay to identify modulators of SIRT1 activity (deacetylation of p53-based acetylated peptide substrate)
- Format: biochemical
- Assay Setup: 25 min, SIRT1 activation, read-out: % FOLD ACT. (percent maximum fold activation)
Quick reference for Emax among some compounds

Query: Would you mind telling me what Emax value was observed for Cc1cc(-c2cccc(Cl)c2)nc2c1OCCN2C(=O)Nc1ccnc(N2CCC2)c1 [Compound 692] ?
Reply: > 200%

Continuing:
Query: Would you mind telling me what Emax value was observed for Cc1nc(NC(=O)N2CCCOc3ccc(-c4cccc(Cl)c4)nc32)sc1C [Compound 703] ?
Reply: > 200%

Query: Would you mind telling me what Emax value was observed for O=C(Nc1ccnc(OCC(O)CO)n1)N1CCOc2ccc(-c3cccc(C(F)(F)F)c3)nc21 (stereo not drawn) [Compound 697] ?
Reply: > 200%

###

- System: SIRT1 (Homo sapiens, UniProt Q96EB6)
- Procedure Details: Mass spectrometry based assay to identify modulators of SIRT1 activity (deacetylation of p53-based acetylated peptide substrate)
- Type: biochemical
- Assay Setup: 25 min, SIRT1 activation, read-out: % FOLD ACT. (percent maximum fold activation)
Quick reference for Emax among some molecules

Recorded results for 6 molecules are shown here.
Query: Would you mind telling me what Emax value was observed for O=C(Nc1ccccn1)N1CCCc2ccc(-c3cccc(F)c3)nc21 ?
Reply: > 200%

Query: Would you mind telling me what Emax value was observed for O=C(Nc1ccnc(N2CCC2)c1)N1CCOc2ccc(-c3cccc(F)c3)nc21 ?
Reply: > 200%

Query: Would you mind telling me what Emax value was observed for Cc1cc(-c2ccc3c(n2)N(C(=O)Nc2nc(C)cs2)CCCO3)ccn1 ?
Reply: > 200%

Query: Would you mind telling me what Emax value was observed for O=C(Oc1cccnc1)N1CCOc2ccc(-c3cccc(C(F)(F)F)c3)nc21 ?
Reply: ≤ 200%

Query: Would you mind telling me what Emax value was observed for O=C(Nc1ccncc1)N1CCCc2ccc(-c3cccc(C(F)(F)F)c3)nc21 ?
Reply: > 200%

Query: Would you mind telling me what Emax value was observed for O=C1CCN(C(=O)Nc2ccncc2)c2nc(-c3cccc(C(F)(F)F)c3)ccc21 ?
Reply: > 200%

Continuing:
Query: Would you mind telling me what Emax value was observed for Cc1csc(NC(=O)N2CCOc3c(C)cc(-c4cccc(C(F)(F)F)c4)nc32)n1 ?
Reply: > 200%

Query: Would you mind telling me what Emax value was observed for CC1(C)CN(C(=O)Nc2cncc(F)c2)c2nc(-c3cccc(F)c3)ccc2O1 ?
Reply: > 200%

Query: Would you mind telling me what Emax value was observed for O=C(Nc1cccnc1)N1CCCC(F)(F)c2ccc(-c3cccc(Cl)c3)nc21 ?
Reply: ≤ 200%

Query: Would you mind telling me what Emax value was observed for O=C(Nc1ccc2nccn2c1)N1CCCOc2ccc(-c3cccc(Cl)c3)nc21 ?
Reply: > 200%

Query: Would you mind telling me what Emax value was observed for O=C(Nc1ccncc1F)N1CCCOc2ccc(-c3cccc(Cl)c3)nc21 ?
Reply: > 200%

Query: Would you mind telling me what Emax value was observed for Cc1csc(NC(=O)N2CCOc3ncc(-c4cccc(C(F)(F)F)c4)nc32)n1 ?
Reply: ≤ 200%

###

- System: SIRT1 (Homo sapiens, UniProt Q96EB6)
- Sequence (Q96EB6 1-747): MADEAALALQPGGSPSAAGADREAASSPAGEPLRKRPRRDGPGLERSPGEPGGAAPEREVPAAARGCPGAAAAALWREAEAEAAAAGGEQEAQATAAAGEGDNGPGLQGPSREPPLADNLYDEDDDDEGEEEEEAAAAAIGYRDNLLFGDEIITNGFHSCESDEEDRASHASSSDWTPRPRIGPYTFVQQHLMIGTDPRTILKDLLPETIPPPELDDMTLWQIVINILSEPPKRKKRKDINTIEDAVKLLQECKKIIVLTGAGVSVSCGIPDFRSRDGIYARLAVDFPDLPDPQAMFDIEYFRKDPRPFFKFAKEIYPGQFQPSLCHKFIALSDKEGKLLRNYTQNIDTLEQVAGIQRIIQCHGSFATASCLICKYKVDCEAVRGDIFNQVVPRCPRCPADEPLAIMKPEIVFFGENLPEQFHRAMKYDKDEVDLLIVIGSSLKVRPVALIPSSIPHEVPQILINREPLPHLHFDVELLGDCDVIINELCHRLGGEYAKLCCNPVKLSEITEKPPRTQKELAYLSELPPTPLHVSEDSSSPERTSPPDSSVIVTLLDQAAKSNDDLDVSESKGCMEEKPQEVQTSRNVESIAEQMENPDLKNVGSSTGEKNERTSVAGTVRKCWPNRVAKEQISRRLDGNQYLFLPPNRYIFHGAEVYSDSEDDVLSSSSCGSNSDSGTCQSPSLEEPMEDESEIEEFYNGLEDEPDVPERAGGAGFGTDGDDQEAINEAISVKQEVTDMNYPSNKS
- Procedure Details: Mass spectrometry based assay to identify modulators of SIRT1 activity (deacetylation of p53-based acetylated peptide substrate)
- Format: biochemical
- Assay Setup: 25 min, SIRT1 activation, read-out: % FOLD ACT. (percent maximum fold activation)
- Excerpt: A mass spectrometry based assay was used to identify modulators of SIRT1 activity. The mass spectrometry based assay utilizes a peptide having 20 amino acid residues as follows: Ac-EE-K(biotin)-GQSTSSHSK(Ac)NleSTEG-K(5TMR)-EE-NH2 (SEQ ID NO: 1) wherein K(Ac) is an acetylated lysine residue and Nle is a norleucine. The peptide is labeled with the fluorophore 5TMR (excitation 540 nm/emission 580 nm) at the C-terminus. The sequence of the peptide substrate is based on p53 with several modifications. […]
Property Label: Emax

Query: Would you mind telling me what Emax value was observed for Cc1cnccc1NC(=O)N1CCC(C)(C)c2ccc(-c3cccc(C(F)(F)F)c3)nc21 ?
Reply: ≤ 200%

Query: Would you mind telling me what Emax value was observed for Cc1cncc(NC(=O)N2CCCOc3ccc(-c4cccc(N5CCCC5)c4)nc32)c1 ?
Reply: > 200%

Query: Would you mind telling me what Emax value was observed for O=C(Nc1ccc(F)cn1)N1CCCOc2ccc(-c3cccc(Cl)c3)nc21 ?
Reply: ≤ 200%

Continuing:
Query: Would you mind telling me what Emax value was observed for Cc1cc(NC(=O)N2CCCOc3ccc(-c4cccc(C(F)(F)F)c4)nc32)ccn1 ?
Reply: > 200%
